Each entry below lists one item and its recorded cell viability value.
System: MARIMO;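 note: after 48 h exposure read by CellTiter-Glo luminescence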
Assay: cell viability relative to vehicle control; higher = less cytotoxic
Conditions: 10 µM; SRSF2 genotype: SRSF2 P95H/wt
Where a name gives a salt, the structure may show the parent alone.
Hi! Could you send only the number? It should be in %, unit omitted.

Below: 2 compounds and their reported cell viability.
COMPOUND	EXPERIMENTAL TARGET	QUANTITY MEASURED	DATA VALUE
CCc1cc2c(cc1CC)CC(NC[C@H](O)c1ccc(O)c3[nH]c(=O)ccc13)C2 [Indacaterol Maleate]	MARIMO	cell viability	73.3
CC(=O)Oc1ccccc1C(=O)O.CC(=O)Oc1ccccc1C(=O)O.NC(N)=O [Carbasalate Calcium]	MARIMO	cell viability	104

Field request: cell viability | item: O=C1CCc2cc(OCCCCc3nnnn3C3CCCCC3)ccc2N1
103
